Sourced from patent EP4772505A1

We begin with a simple list: items and their reported Dmax at 0.1 µM.
Target: UniProt:P10275
Sequence (P10275 whole entry): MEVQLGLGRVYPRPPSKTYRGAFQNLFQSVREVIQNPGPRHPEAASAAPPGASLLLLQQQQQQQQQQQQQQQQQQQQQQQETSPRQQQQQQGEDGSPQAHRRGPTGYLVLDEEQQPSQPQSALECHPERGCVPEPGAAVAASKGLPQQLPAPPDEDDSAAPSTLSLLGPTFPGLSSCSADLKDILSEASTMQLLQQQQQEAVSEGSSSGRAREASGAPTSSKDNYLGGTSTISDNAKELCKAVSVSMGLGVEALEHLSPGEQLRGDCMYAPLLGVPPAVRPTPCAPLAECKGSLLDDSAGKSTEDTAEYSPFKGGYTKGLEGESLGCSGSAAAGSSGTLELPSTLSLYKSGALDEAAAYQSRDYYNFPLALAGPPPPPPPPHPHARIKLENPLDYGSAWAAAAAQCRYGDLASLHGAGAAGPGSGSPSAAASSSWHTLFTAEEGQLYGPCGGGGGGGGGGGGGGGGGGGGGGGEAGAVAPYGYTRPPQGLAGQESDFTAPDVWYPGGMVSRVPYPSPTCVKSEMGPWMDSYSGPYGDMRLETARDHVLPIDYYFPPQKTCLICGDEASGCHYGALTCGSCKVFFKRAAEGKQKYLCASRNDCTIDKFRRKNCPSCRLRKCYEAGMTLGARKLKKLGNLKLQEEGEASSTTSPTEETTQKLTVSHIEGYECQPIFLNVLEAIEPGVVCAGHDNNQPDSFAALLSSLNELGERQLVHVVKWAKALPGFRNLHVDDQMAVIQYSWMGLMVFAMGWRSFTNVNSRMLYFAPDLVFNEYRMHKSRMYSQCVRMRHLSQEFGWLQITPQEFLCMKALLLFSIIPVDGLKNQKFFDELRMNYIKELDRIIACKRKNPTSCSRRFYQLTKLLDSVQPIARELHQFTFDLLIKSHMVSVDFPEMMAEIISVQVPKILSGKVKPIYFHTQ
Experiment: Measurement of AR protein degradation in VCaP cells by Western blotting
Format: cell-based
Parameters: endogenous in cells; host or cells: VCaP
Conditions: VCaP, 20 h, read-out: AR degradation in VCaP cells (%)
Method: The amount of AR protein present in LNCaP or VCaP cells was measured after treating them with the synthesized compound. The amount of AR protein was measured using Western blotting. The protocol for the experiments using LNCaP or VCaP cells was as follows. [Culture] […] [Protein Quantification] […] After shaking for 10 seconds, the absorbance was measured at a wavelength of 562 nm. The unknown protein concentration was determined using a BSA standard curve (0, 0.125, 0.25, 0.5, 1, 2 mg/mL). […]
# unit: % | format: bare number

N#Cc1ccc(N2CCC(C(=O)Nc3ccc(OC4CCN(CC5CCN(c6ccc(NC7CCC(=O)NC7=O)cc6F)CC5)CC4)cn3)CC2)c(F)c1Cl (stereo not drawn); 98

Lab book: Dmax at 0.1 µM of `N#Cc1ccc(N2CCC(C(=O)Nc3ccc(OC4CCN(CC5CCN(c6ccc(N[C@@H]7CCC(=O)NC7=O)cc6F)CC5)CC4)cn3)CC2)cc1Cl` noted as 99

Lab note: N#Cc1ccc(N2CCC(C(=O)Nc3ccc(OC4CCN(CC5CCN(c6ccc(NC7CCC(=O)NC7=O)cc6F)CC5)CC4)cn3)CC2)cc1C(F)(F)F (stereo not drawn) gave Dmax at 0.1 µM of 99
